Source listed as patent US20220340582A1.

Measured pIC50, listed per entry for reference.
system: human CB1 receptor (Homo sapiens, UniProt P21554)
Construct: host or cells: CHO-K1
Sequence (P21554 whole entry): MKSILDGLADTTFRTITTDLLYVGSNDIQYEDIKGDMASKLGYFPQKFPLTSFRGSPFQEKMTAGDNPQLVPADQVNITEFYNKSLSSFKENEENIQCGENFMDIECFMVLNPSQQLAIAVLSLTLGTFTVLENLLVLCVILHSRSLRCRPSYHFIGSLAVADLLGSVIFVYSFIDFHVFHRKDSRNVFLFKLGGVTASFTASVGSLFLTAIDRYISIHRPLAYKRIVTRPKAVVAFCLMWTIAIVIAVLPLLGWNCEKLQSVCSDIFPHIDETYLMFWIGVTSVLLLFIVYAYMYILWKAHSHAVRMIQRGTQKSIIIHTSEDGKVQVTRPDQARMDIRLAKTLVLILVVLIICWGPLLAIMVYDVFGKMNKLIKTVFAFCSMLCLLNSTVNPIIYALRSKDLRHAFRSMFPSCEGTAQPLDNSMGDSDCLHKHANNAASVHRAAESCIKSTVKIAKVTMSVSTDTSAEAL
measurement_protocol: CB1 radioligand competitive binding assay ([3H]CP 55,940 displacement)
pIC50: −log10 of the molar value.

Inquiry: Supply recorded pIC50 for CCCCCc1cc2c(c(O)c1C(=O)N1CCN(C(C)=O)CC1)[C@@H]1C=C(C)CC[C@H]1C(C)(C)O2 [Compound 36b] here.
Reply text: < 6.00

---
Inquiry: Fill in pIC50 for record CCCCCc1cc2c(c(O)c1C(=O)N1CCCC1)[C@@H]1C=C(C)CC[C@H]1C(C)(C)O2 [Compound 41b]
Reply text: 6.31 to 7.00

Inquiry: Give the reported pIC50 for this compound. CCCCCc1cc2c(c(O)c1C(=O)NCC)[C@@H]1C=C(C)CC[C@H]1C(C)(C)O2 [Compound 3b]
Reply text: 6.00 to 6.30

Inquiry: Identify pIC50 associated with the compound CCCCCc1cc2c(c(O)c1C(=O)NC1CC1)[C@@H]1C=C(C)CC[C@H]1C(C)(C)O2 [Compound 6b]
Reply text: 6.31 to 7.00

###

system: human CB2 receptor (Homo sapiens)
Construct: host or cells: CHO-K1
Sequence (P34972 whole entry): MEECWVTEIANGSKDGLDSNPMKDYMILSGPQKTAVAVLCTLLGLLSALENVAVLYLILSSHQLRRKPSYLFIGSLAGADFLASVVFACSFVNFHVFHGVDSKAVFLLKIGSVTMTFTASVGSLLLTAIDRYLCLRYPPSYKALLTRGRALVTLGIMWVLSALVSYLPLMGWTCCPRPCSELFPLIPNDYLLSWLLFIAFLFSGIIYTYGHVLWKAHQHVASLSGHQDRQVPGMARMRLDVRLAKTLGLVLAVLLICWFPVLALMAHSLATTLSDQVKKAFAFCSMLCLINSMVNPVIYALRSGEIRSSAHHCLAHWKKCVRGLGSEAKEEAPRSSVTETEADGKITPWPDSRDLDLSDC
measurement_protocol: CB2 radioligand competitive binding assay ([3H]CP 55,940 displacement)
conditions_used: 0.6 nM [3H]CP55,940, CHO-K1 membranes expressing human CB2 receptor, dose-response; read-out: CB2 IC50
pIC50: −log10 of the molar value.
endpoint_label: pIC50

Inquiry: Please list pIC50 recorded for the compound CCCCCc1cc2c(c(O)c1C(=O)Nc1ccccc1)[C@@H]1C=C(C)CC[C@H]1C(C)(C)O2 [Compound 10b]
Reply text: > 7.00

Inquiry: Identify pIC50 associated with the compound CCCCCc1cc2c(c(O)c1C(=O)NCc1cccnc1)[C@@H]1C=C(C)CC[C@H]1C(C)(C)O2 [Compound 15b]
Reply text: > 7.00

###

system: human CB1 receptor (Homo sapiens, UniProt P21554)
Construct: host or cells: CHO-K1
measurement_protocol: CB1 radioligand competitive binding assay ([3H]CP 55,940 displacement)
pIC50: −log10 of the molar value.
pIC50: recorded values

Inquiry: Note down pIC50 recorded for CCCCCc1cc2c(c(O)c1C(=O)N1Cc3ccccc3C1)[C@@H]1C=C(C)CC[C@H]1C(C)(C)O2 [Compound 43b]
Reply text: < 6.00

Inquiry: For the compound CCCCCc1cc2c(c(O)c1C(=O)N1CCOCC1)[C@@H]1C=C(C)CC[C@H]1C(C)(C)O2 [Compound 39b] , give its measured pIC50 value.
Reply text: 6.31 to 7.00

Inquiry: Quick one: give measured pIC50 for CCCCCc1cc2c(c(O)c1C(=O)N(CC)CC)[C@@H]1C=C(C)CC[C@H]1C(C)(C)O2 [Compound 50b]
Reply text: 6.31 to 7.00

Shift focus to the following entry.
Inquiry: Tell me pIC50 reported for CCCc1cc2c(c(O)c1C(=O)NC)[C@@H]1C=C(C)CC[C@H]1C(C)(C)O2 [Compound 58b]
Reply text: < 6.00

###

system: human CB2 receptor (Homo sapiens)
Construct: host or cells: CHO-K1
measurement_protocol: CB2 radioligand competitive binding assay ([3H]CP 55,940 displacement)
Below, each entry is listed alongside its reported IC50.

Solved cases (5 shown):
Inquiry: Indicate the recorded IC50 value for this molecule: CCCCCc1cc2c(c(O)c1C(=O)NCC)[C@@H]1C=C(C)CC[C@H]1C(C)(C)O2 [Compound 3b]
Reply text: 100 to 490 nM

Inquiry: Find the measured IC50 of CCCc1cc2c(c(O)c1C(=O)NC)[C@@H]1C=C(C)CC[C@H]1C(C)(C)O2 [Compound 58b] and report it.
Reply text: > 1000 nM

Inquiry: Entry CCCCCc1cc2c(c(O)c1C(=O)N1CCN(C(C)=O)CC1)[C@@H]1C=C(C)CC[C@H]1C(C)(C)O2 [Compound 36b] needs its IC50 filled in; supply it.
Reply text: > 1000 nM

Inquiry: Answer with the recorded IC50 of CCCCCc1cc2c(c(O)c1C(=O)N1CCOCC1)[C@@H]1C=C(C)CC[C@H]1C(C)(C)O2 [Compound 39b] only.
Reply text: 100 to 490 nM

Inquiry: Please give measured IC50 of the following entry: CCCCCc1cc2c(c(O)c1C(=O)NC1CC1)[C@@H]1C=C(C)CC[C@H]1C(C)(C)O2 [Compound 6b]
Reply text: < 100 nM

Continuing:
Inquiry: Please indicate IC50 recorded for CCCCCc1cc2c(c(O)c1C(=O)N1CCCC1)[C@@H]1C=C(C)CC[C@H]1C(C)(C)O2 [Compound 41b]
Reply text: 100 to 490 nM

Inquiry: Tell me IC50 reported for CCCCCc1cc2c(c(O)c1C(=O)N1Cc3ccccc3C1)[C@@H]1C=C(C)CC[C@H]1C(C)(C)O2 [Compound 43b]
Reply text: 100 to 490 nM

Inquiry: Kindly indicate its recorded IC50. Item: CCCCCc1cc2c(c(O)c1C(=O)N(CC)CC)[C@@H]1C=C(C)CC[C@H]1C(C)(C)O2 [Compound 50b]
Reply text: < 100 nM
